# subject of test: human CD137 (human, UniProt Q07011 24-186)
# Sequence (Q07011 24-186 limits assumed): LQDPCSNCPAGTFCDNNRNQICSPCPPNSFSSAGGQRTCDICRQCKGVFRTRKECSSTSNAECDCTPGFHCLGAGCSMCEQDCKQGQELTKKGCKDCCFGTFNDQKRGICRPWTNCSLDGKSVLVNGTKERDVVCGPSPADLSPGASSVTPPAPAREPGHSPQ
# procedure details: SPR Biacore T200, IgG captured on protein A, 25 C;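 also: antigens diluted in ACES running buffer at pH 7.4 were flowed over antibodies held on a CM3 chip bearing amine-coupled protein A, with buffer alone serving as blank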
experimental readout: Kd (µM)
// units = µM; emit number, no label

The value of Kd measured for the binder dBBDu186/L106 (antibody, V domains shown, IgG format; constant regions not specified) VH: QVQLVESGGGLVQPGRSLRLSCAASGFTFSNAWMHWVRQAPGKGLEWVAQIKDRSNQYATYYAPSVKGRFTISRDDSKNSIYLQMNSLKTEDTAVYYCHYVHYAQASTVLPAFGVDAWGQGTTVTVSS VL: DIVMTQSPLSLPVTPGEPASISCSTSEELLHINRFIFLHWYQQKPGQAPRLLIYKVANRFMGVPDRFSGSGSGTDFTLKISRVEAEDVGVYYCAQGSQVPFTFGQGTKLEIK turned out to be 3.44

The value of Kd measured for the binder dBBDu189/L126 (antibody, V domains shown, IgG format; constant regions not specified) VH: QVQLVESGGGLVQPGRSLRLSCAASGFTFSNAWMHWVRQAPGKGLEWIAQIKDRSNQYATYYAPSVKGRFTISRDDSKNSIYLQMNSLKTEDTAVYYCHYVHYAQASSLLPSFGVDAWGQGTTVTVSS VL: DIVMTQSPLSLPVTPGEPASISCRTSEELLHINRYIFLHWYQQKPGQAPRLLIYKVQNRFSGVPDRFSGSGSGTDFTLKISRVEAEDVGVYYCAQGSAVPFTFGQGTKLEIK turned out to be 0.513

The value of Kd measured for the binder dBBDu193/L132 (antibody, V domains shown, IgG format; constant regions not specified; also called dBBDu_193 dBBDu.L132) VH: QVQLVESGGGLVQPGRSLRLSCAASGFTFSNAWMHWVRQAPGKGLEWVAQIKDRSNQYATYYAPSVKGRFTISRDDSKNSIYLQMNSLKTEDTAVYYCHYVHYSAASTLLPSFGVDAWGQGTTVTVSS VL: DIVMTQSPLSLPVTPGEPASISCQTSEELVHINRFIFLHWYQQKPGQAPRLLIYKVSNRFSGVPDRFSGSGSGTDFTLKISRVEAEDVGVYYCAQGTSVPFTFGQGTKLEIK turned out to be 4.48
